Tested on: 782815-120-R-J1-PDC complex spheroid viability
assayOverview: Anticancer human tumor 782815-120-R-J1-PDC patient-derived colon adenocarcinoma cell line growth inhibition [RAS]
conditionInfo: second compound 0.0316 µM; first compound 0.0316 µM; hits give low values
endpointName: viability, T/C (%)

>>> readoutnumber("C=CC(=O)N1CCN(c2nc(OCC3CCCN3C)nc3c(F)c(-c4nc(N)cc(C)c4C(F)(F)F)c(Cl)cc23)C(C)C1 (stereo not given) + C#Cc1c(F)ccc2cc(O)cc(-c3ncc4c(N5CC6CCC(C5)N6)nc(OCC56CCCN5CC(F)C6)nc4c3F)c12")
103
>>> readoutnumber("O=C(c1ccc(F)c(F)c1Nc1ccc(I)cc1F)N1CC(O)([C@@H]2CCCCN2)C1 + C#Cc1c(F)ccc2cc(O)cc(-c3ncc4c(N5CC6CCC(C5)N6)nc(OCC56CCCN5CC(F)C6)nc4c3F)c12")
66
>>> readoutnumber("CC(C)NCC(C(=O)N1CCN(c2ncnc3c2C(C)CC3O)CC1)c1ccc(Cl)cc1 (stereo not given) + C#Cc1c(F)ccc2cc(O)cc(-c3ncc4c(N5CC6CCC(C5)N6)nc(OCC56CCCN5CC(F)C6)nc4c3F)c12")
95.9
>>> readoutnumber("Nc1ccn(C2OC(CO)C(O)C2(F)F)c(=O)n1 (stereo not given) + C=CC(=O)N1CCN(c2nc(OCC3CCCN3C)nc3c(F)c(-c4nc(N)cc(C)c4C(F)(F)F)c(Cl)cc23)C(C)C1")
57.9
>>> readoutnumber("NC1c2ccccc2OC12CCN(c1cnc3c(N4CCCc5ncccc54)n[nH]c3n1)CC2 (stereo not given) + C#Cc1c(F)ccc2cc(O)cc(-c3ncc4c(N5CC6CCC(C5)N6)nc(OCC56CCCN5CC(F)C6)nc4c3F)c12")
110

---

Overview of reported viability, T/C across a group of compounds:
System: 782815-120-R-J1-PDC complex spheroid viability
assayOverview: Anticancer human tumor 782815-120-R-J1-PDC cell line growth inhibition [RAS];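 further: spheroids exposed to compounds for 7 days before reading; 100% = DMSO vehicle control viability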
conditionInfo: second compound 1 µM; first compound 0.3 µM; hits give low values
endpointName: viability, T/C

>>> result("CC1(C)CCC(Nc2ncc(C(F)(F)F)c(-c3c[nH]c4c(P(C)(C)=O)c(C#N)ccc34)n2)CN1 (centres undefined) + C#Cc1c(F)ccc2cc(O)cc(-c3ncc4c(N5CC6CCC(C5)N6)nc(OCC56CCCN5CC(F)C6)nc4c3F)c12")
"58.5%"
>>> result("CCc1c2c(nc3ccc(O)cc13)-c1cc3c(c(=O)n1C2)COC(=O)[C@]3(O)CC + C#Cc1c(F)ccc2cc(O)cc(-c3ncc4c(N5CC6CCC(C5)N6)nc(OCC56CCCN5CC(F)C6)nc4c3F)c12")
"1.25%"
>>> result("CCc1c2c(nc3ccc(O)cc13)-c1cc3c(c(=O)n1C2)COC(=O)[C@]3(O)CC + C=CC(=O)N1CCN(c2nc(OCC3CCCN3C)nc3c(F)c(-c4nc(N)cc(C)c4C(F)(F)F)c(Cl)cc23)C(C)C1")
"1.36%"
>>> result("CC1(C)CCC(Nc2ncc(C(F)(F)F)c(-c3c[nH]c4c(P(C)(C)=O)c(C#N)ccc34)n2)CN1 (centres undefined) + C=CC(=O)N1CCN(c2nc(OCC3CCCN3C)nc3c(F)c(-c4nc(N)cc(C)c4C(F)(F)F)c(Cl)cc23)C(C)C1")
"53.3%"
